Experiment: yeast display, Sf9 membrane polyspecificity reagent, FACS + sequencing; frameworks hold sequencing errors
Value Type: polyreactivity (PSR sort gate)

Consider the following illustrative entries.
Would you mind telling me what polyreactivity (PSR sort gate) value was observed for QVQLVESGGGLVQAGGSLRLSCAASGRISSGYAMGWYRKAPGKERELVAAISSIGGRTYYADSVKGRFTISRDNANNTVYLQMNSLKPEDTAVYYCNAGTYRRIGGYDYWGQGTQVTVSS ?
high polyreactivity

Would you mind telling me what polyreactivity (PSR sort gate) value was observed for QVHLVESGGGLVQAGVSLRLSCAASGLTFGPYAMGWYRQAPGKERELVAAITSGGNTNYADSVKGRFTISRDNAKNTVYLQMNSLKPEDTAVYYCATSYYLAYRSITPYDYWGQGTQVTVSS ?
low polyreactivity

Would you mind telling me what polyreactivity (PSR sort gate) value was observed for QVQLVESGGGLVQAGGSLRLSCAASGRIFRVYAMGWYRQAPGKERELVAAIRWTGGSTYYADSVKGRFKISRDNAKNTVYLQMNSLKPEDTAVYYCAAGRYYSDGSRTIYDYWGQGTQVTVSS ?
low polyreactivity

Would you mind telling me what polyreactivity (PSR sort gate) value was observed for QVQLVETGGGLVQAGGSLRLSCAASGFIFRGNAMGWYRQAPGKERELVAAISKRGGSTNYADSVKGRFTISRDNAKNTVYLQMNSLKPEDTAVYYCNAEGIYRQPRGYVYRYDYWGQGTQVTVSS ?
high polyreactivity

Would you mind telling me what polyreactivity (PSR sort gate) value was observed for QVQLVESGGGLVQAGGSLRLSCAASGFTFDPYAMGWYREAPGKERELVAAISFSGGSTSYADSVKGRFTISRDNAKNSVYFQMNSLKPEDTAVYYCAAYSWLYEGYEYWGQGTQVTVSS ?
high polyreactivity

Would you mind telling me what polyreactivity (PSR sort gate) value was observed for QVQLVESGGGLVQAGGSLRLSCAASGNIFYRKARGWYRQAPGKERELVAAITSGGGSTYYADSVKGRFTISRDNAKNTVYLQMNSLKPVDTAVYYCNAYAWNYFGIKVTYDYWGQGTQVTVSS ?
high polyreactivity

Would you mind telling me what polyreactivity (PSR sort gate) value was observed for QVQLVESGGGLVQAGGSLRLSCAASGRIFRYYAMGWYRQAPGKERELVATISRSGGSTFYADSVKGRFTISRDNGKNPVYLQMNSLKPEDSAVYYCNARYQTGCYGYWGQGTQVTVSS ?
high polyreactivity

Would you mind telling me what polyreactivity (PSR sort gate) value was observed for QVQLVESGGGLVQAGGSLRLSCAASGSIFKGNAMGCYRQAPWKESEMVAAISGGGGSTYYADSVKGRFTISRDNAKNTVYLQMYSLKPEDTAVYYCAARYYESPGDRSGFRYGYWGQGTQVTVSS ?
high polyreactivity

Would you mind telling me what polyreactivity (PSR sort gate) value was observed for QVQLVESGGGLVQAGGSLRLSCAASGSTFPLYAMGLYRQAPGKERELVAAITGGGGRTYYADSVKGRFTISRDIAKNTVYLQMNSLKPEYTAVYYCNAVVYLTNYWYDYWAQGTQVTVSS ?
low polyreactivity

Would you mind telling me what polyreactivity (PSR sort gate) value was observed for QVQLVESGGGLVQAGGSLRLSCAASGRIFAWNDMGWYRQAPGKERELLPLFWSGGSTYYADSVKGRFTIARDNAKNTGYLQRNSLKPEDTAVYYCNKDSPPITPYDYWGQGTQVTVSS ?
low polyreactivity

***
Would you mind telling me what polyreactivity (PSR sort gate) value was observed for QVQLVESGGGLVQAGGSLRLSCAASGSTFSRNAMGWYRQAPGKERELVAAISWRGGRTYYADSVKGRFTISRDNAKNTVYLQMNRLKPEDTAVYYCAAEHKYRYDYWGQGTQVTVSS ?
low polyreactivity

Would you mind telling me what polyreactivity (PSR sort gate) value was observed for QVQLVESGGGLVQAGGSLRLSCAASGRTFYAYAMGWSRQAPGKERELVAAITSGASTYYADSVKGRFTISRDNAKNTVYLQMNSLKPEDTAVYYCAKRVRYYKPGYDYWGQGTQVTVSS ?
low polyreactivity
